proliferation by entry:
Assay notes: inducers of MIN6 beta-cell proliferation, primary screen, ATP luminescence, uHTS (AID 2380);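 further: 0% = DMSO-treated cells in low-serum medium and 100% = 10% serum control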
Setup conditions: MIN6 cells proliferation, ATPlite luminescence, 48 h; at 10 µM; hits give high values; 100% = growth in 10% serum; cells starved in 0.2% serum
The whole screen tested about 330,000 compounds, of which about 960 (0.29%) were called active. Many of the other results were omitted from the sample, so actives are more common in it than they were.
Quantity kind: proliferation (%)

1) Cc1cc(C)c(S(=O)(=O)NCC2CCC(C(=O)NCc3ccc4c(c3)OCO4)CC2)c(C)c1 (stereo not given) ... -1.16
2) C/C(Cl)=C\Cn1c(Nc2cccc(C)c2)nc2c1c(=O)n(C)c(=O)n2C ... -1.44
3) CCCCn1c(N)c(N(CCOC)C(=O)c2cccc(S(=O)(=O)N3CCCCC3)c2)c(=O)[nH]c1=O ... 1.76
4) C/C(=N/Nc1ccc(Cl)cc1)c1cnnc(-c2ccccc2)n1 ... -3.11
5) C=CCn1nc(-c2ccccc2)c2c(C)onc2c1=O ... 2.27

----------
Assay notes: inducers of MIN6 beta-cell proliferation, primary screen, ATP luminescence, uHTS (AID 2380);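 further: 0% = DMSO-treated cells in low-serum medium and 100% = 10% serum control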
Setup conditions: MIN6 cells proliferation, ATPlite luminescence, 48 h; at 10 µM; 100% = growth in 10% serum; cells starved in 0.2% serum
The whole screen tested about 330,000 compounds, of which about 960 (0.29%) were called active.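 Rule for the calls: active = compounds whose signal lies at least 3.5 SD above the mean of all wells on their plate; inactive = the rest.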 The full list was thinned out, with actives kept by preference.
Possible outcomes: Y for active, N for inactive

1. Cc1csc(NC(=S)Nc2cccc(Cl)c2)n1 ... N
2. CCOC(=O)N1CCN(C(=O)c2cn(C)c3ccc(S(=O)(=O)N4CCCC4)cc3c2=O)CC1 ... N
3. O=C(Nc1ccc(F)cc1)C1CCCN(S(=O)(=O)c2ccc(-n3cnnn3)cc2)C1 (stereo unspecified) ... Y
4. S=C(Nc1cccc(Cl)c1)Nc1ccc2cn[nH]c2c1 ... Y
5. O=C(c1ccc(F)cc1)c1cn(Cc2ccc(F)cc2)c2cc3c(cc2c1=O)OCCO3 ... N
6. Cc1ccc(S(=O)(=O)N2CCN(C)CC2)cc1C(=O)NC1CCCCC1 ... N
7. CC(C)OCCCNC(=S)N1CCC(C(=O)c2ccc3c(c2)OCCO3)CC1 ... N
8. Cc1ccc(S(=O)(=O)N2CCCCC2)cc1C(=O)N1CCN(CCO)CC1 ... Y
9. O=C(O)CC(SCC(=O)Nc1ccc(Br)cc1)C(=O)O (stereo unspecified) ... N
10. Cc1ccc(O)c(NC(=O)c2cc(-c3ccco3)on2)c1 ... N
11. FC(F)(F)c1cccc(NC(=S)Nc2cccc(Cl)c2)c1 ... N

----------
Assay notes: inducers of MIN6 beta-cell proliferation, primary screen, ATP luminescence, uHTS (AID 2380);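 further: 0% = DMSO-treated cells in low-serum medium and 100% = 10% serum control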
Setup conditions: MIN6 cells proliferation, ATPlite luminescence, 48 h; at 10 µM; 100% = growth in 10% serum; cells starved in 0.2% serum
In all, about 330,000 compounds went through this assay and about 960 (0.29%) were called active.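 The calls were made as follows: active = compounds whose signal lies at least 3.5 SD above the mean of all wells on their plate; inactive = the rest.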 This excerpt belongs to a sample that is enriched for actives.
Possible outcomes: Yes = active, No = inactive

1. O=C(NNC(=O)C(O)c1ccccc1)NC1CCCCC1 (stereo unspecified) ... No
2. Cc1ccc(C(=O)Nc2ccc(NC(=O)c3cccs3)cc2)c(C)c1 ... Yes
3. COc1ccccc1N=Cc1c(O)c2ccccc2oc1=O ... Yes
4. CC(=O)Nc1ccc(NC(=O)C(C)OC(=O)c2ccccc2C(=O)c2ccc(Cl)c([N+](=O)[O-])c2)cc1 (stereo unspecified) ... No
5. CN(Cc1ccc2nsnc2c1)Cc1nc(Cc2cccc(F)c2)no1 ... No
6. Cc1ccc(OCC(=O)Nc2ccc(NC(=O)c3cccs3)cc2)c(C)c1 ... No

----------
Assay notes: inducers of MIN6 beta-cell proliferation, primary screen, ATP luminescence, uHTS (AID 2380);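 further: 0% = DMSO-treated cells in low-serum medium and 100% = 10% serum control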
Setup conditions: MIN6 cells proliferation, ATPlite luminescence, 48 h; at 10 µM; 100% = growth in 10% serum; cells starved in 0.2% serum
About 960 (0.29%) of roughly 330,000 compounds were called active.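 The calls were made as follows: active = compounds whose signal lies at least 3.5 SD above the mean of all wells on their plate; inactive = the rest.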 What follows is part of a selection rich in actives, with near analogues and random picks from the rest.
Possible outcomes: t for active, f for inactive

1. Cc1cc(NC(=O)COn2nnc3ccccc32)no1 ... f
2. COc1ccc(CCn2c(=N)c(C(=O)NCC3CCCO3)cc3c(=O)n4cccc(C)c4nc32)cc1OC (stereo not given) ... f
3. Cn1nc(-c2ccccc2)c2cc([N+](=O)[O-])ccc21 ... t
4. COC(=O)Cn1nc(-c2ccccc2)c2cc(Cl)ccc21 ... f
5. CCOc1ccc(NC(=O)Nc2cc(C)ccc2OC)cc1 ... f
6. OC1CN=C2Sc3ccccc3N2C1 (stereo not given) ... t
7. CC(C)Cc1oc(C(=O)O)cc1CN ... f
8. CC(C)c1nnc(NC(=O)COC(=O)/C=C/c2ccc([N+](=O)[O-])cc2)s1 ... f
9. COC(C(=O)NCc1ccccc1C)c1ccccc1 (stereo not given) ... f
10. O=S(=O)(Cc1nnnn1-c1ccccc1)c1ccccc1 ... f
11. COc1cc2cc(CN(CCN3CCCC3)C(=O)Nc3ccccc3Cl)c(=O)[nH]c2cc1OC ... f
12. O=C(Cc1c(F)cccc1Cl)N1CCN(C(=O)c2ccco2)CC1 ... f
13. C=CCOC(=O)C1=C(C)OC(N)=C(C#N)C1c1ccc(F)cc1 (stereo not given) ... f
14. CCOC(=O)C1=C(C)OC(N)=C(C#N)C1c1cncc(-c2ccc(F)cc2)c1 (stereo not given) ... f
15. Cc1cc(NC(=O)c2ccco2)c(=O)n(Cc2c(F)cccc2Cl)c1 ... t
16. COC(=O)c1cc(C(=O)NC(C)C2CC3CCC2C3)cc([N+](=O)[O-])c1 (stereo not given) ... f
17. Cc1ccc(C(=O)NC(=S)Nc2ccc(N3CCOCC3)cc2)cc1 ... f
18. CCOc1ccc(-n2c(SCC(=O)Nc3cc(C(=O)O)ccc3Cl)nc3ccccc3c2=O)cc1 ... f
19. CCCn1c(C)cc(/C=C(\C#N)C(=O)OCC(=O)Nc2cc(OC)c(OC)c(OC)c2)c1C ... f
20. CSc1cccc(NC(=O)CN2C(=O)COc3ccc(S(=O)(=O)N4CCOCC4)cc32)c1 ... f
21. C=CCn1c(=O)c(C(=O)NCc2ccc3c(c2)OCO3)c(O)c2ccccc21 ... f
22. CCOC(=O)C1=C(CC)OC(N)=C(C#N)C1c1ccc(F)cc1F (stereo not given) ... t
23. Cc1noc(COc2ccccc2OCc2onc(C)c2Cl)c1Cl ... f
24. O=c1[nH][nH]c(C(F)(F)F)c1C=NCc1ccccc1Cl ... f
25. Nc1[nH]c(=S)nc2nc(-c3ccccc3)c(-c3ccccc3)nc12 ... f
26. CCCCNC(=O)OCCSCCS(=O)(=O)c1ccc(Cl)cc1 ... f
27. CCOC(=O)c1c(N=CN(C)C)c(C#N)c2n1CCCC2 ... f
28. CCn1c(=O)c([N+](=O)[O-])c(NCc2ccc3c(c2)OCO3)c2ccccc21 ... t
29. Cc1scc(C(=O)NNC(=S)NCc2ccccc2)c1C ... f
30. CN=C1SC(C(=O)O)CC(=O)N1C (stereo not given) ... f
31. CC(=O)CC[C@@H](C)O[C@@H]1OC(C)[C@H](O)CC1O (stereo not given in full) ... f
32. COc1ccc(-n2nnnc2CNC(=O)c2ccc3ccccc3c2)cc1 ... f
33. CC(=O)c1ccc(S(=O)(=O)NCc2nnnn2-c2ccccc2)cc1 ... t
34. CCn1c(=O)cc(SCC(=O)NCc2ccc3c(c2)OCO3)c2ccccc21 ... f
35. CC(N)C12CC3CC(CC(O)(C3)C1)C2 (stereo not given) ... f
36. O=[N+]([O-])c1ccc2c(c1)C(O)n1nc(-c3ccccc3)nc1S2 (stereo not given) ... f
37. O=C(CN1CCN(c2ccc(F)cc2)CC1)Nc1cccc(C(F)(F)F)c1 ... f
38. O=C(CN1CCN(c2ccc(Cl)cc2)CC1)c1ccccc1 ... f
39. Cn1c(=O)c2c(ncn2CC(COCc2ccccc2Cl)OCc2ccccc2Cl)n(C)c1=O (stereo not given) ... f
40. CCCN1C(=O)C(Cc2nc3ccccc3c(=O)n2-c2ccccc2)c2cc(C)ccc21 (stereo not given) ... f
41. COc1ccc(N(CC(=O)Nc2cc(OC)cc(OC)c2)S(=O)(=O)c2c(C)n[nH]c2C)cc1 ... f
42. COCCNc1nc(-c2ccccc2)nc2c1oc1ccccc12 ... t
43. CC1=NN(C(=O)CCCc2ccccc2)C(O)(C(F)(F)F)C1 (stereo not given) ... f
44. COc1ccc2c(c1)C(=C(C#N)C#N)C(=O)N2CCc1ccccc1 ... f
45. CN1CCN(c2ccc(CNS(=O)(=O)c3cccc(F)c3)cc2)CC1 ... f
